Target Desc: human RORγt ligand binding domain (RORγt LBD) (Homo sapiens)
Construct: His-tag (N); TurboTEV protease cleavage site (ENLYFQG) (N)
Sequence (P51449 with tags, fused parts or gaps): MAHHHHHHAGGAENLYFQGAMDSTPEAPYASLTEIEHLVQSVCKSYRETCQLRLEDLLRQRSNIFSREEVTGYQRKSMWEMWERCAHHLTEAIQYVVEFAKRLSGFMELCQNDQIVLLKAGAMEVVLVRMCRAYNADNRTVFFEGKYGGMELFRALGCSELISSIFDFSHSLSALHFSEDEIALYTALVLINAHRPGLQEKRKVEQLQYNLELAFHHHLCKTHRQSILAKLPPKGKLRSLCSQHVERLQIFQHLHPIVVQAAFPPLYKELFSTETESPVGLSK
Procedure Text: RORγt ThermoFluor assay
Recorded Metric: pKd
Reminder that pKd means the negative base-10 logarithm of the concentration expressed in mol/L.

Reported pKd, compound CC(C)(C)OC(=O)N(c1ccccc1)c1c(Cl)nc2ccc(C(O)(c3cccnc3)c3cccc(Cl)c3)cc2c1Cl (stereo not shown) : ____
4.64
